A collection of variants and their measured polymerase ribozyme fitness (log ratio)
B1: TPR 5TU (parent)
chain: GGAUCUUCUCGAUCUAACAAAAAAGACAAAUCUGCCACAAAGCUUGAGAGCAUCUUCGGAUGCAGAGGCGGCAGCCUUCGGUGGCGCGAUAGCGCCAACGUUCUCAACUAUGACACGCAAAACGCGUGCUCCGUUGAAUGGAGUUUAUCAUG

variants of: B1; test: polymerase ribozyme fitness, log enrichment relative to wild type (log ratio); higher = more active; in vitro selection for triplet polymerase activity
Fewer inactive variants are shown than the library holds.
Enter a number only.

// worked examples, polymerase ribozyme fitness (log ratio) included
A60C U61A    -2.27
A89C A150C    -3.81
C57A G128C    -2.62
G48A G86C C123A C125G    -3.94
A17U C54A A89C C99A G136A    -4.03
A29U C95U    -3.54
U104C A106G    -0.701
U53A U56G A115U A120G    -2.77
G83A G92U C118G    -1.41
C18A C69G C96U C103A    -2.88

Problem: Consider the variant shown here: C85U C108U What is its recorded polymerase ribozyme fitness (log ratio)?
Solution: -3.1

Problem: If you can, please state the reported polymerase ribozyme fitness (log ratio) value of C95U C116G U135A .
Solution: -2.67

Problem: Data request, read-out polymerase ribozyme fitness (log ratio), for C93U G128U
Solution: -3.6

The reported numbers originate from the RNAGym collection of RNA variant scans (doi:10.1073/pnas.2313332121).
